// provenance: the supplement of paper PMC10567573

B1: PRKX (parent)
chain: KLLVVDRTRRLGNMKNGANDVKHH

# Variants of: B1
# measurement.protocol: protein stability index of a GFP-peptide fusion (GPS, HEK-293T) (PSI 1-6); higher = more stable;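 also: lentivirally expressed fusions sorted by FACS into six bins by GFP to DsRed ratio, PSI derived from sequencing read proportions per bin multiplied by bin number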
# measurement.parameters: c terminus: a fixed tail appended
Quick reference: protein stability index of the listed items.
measure.name: protein stability index

biopolymer_sequence="KLLVVDRTRRLGNMKNWANDVKHH [G17W]" measure_name="protein stability index" recorded_number=1.86
biopolymer_sequence="KLLVVDRKRRLGNMKNGANDVKHH [T8K]" measure_name="protein stability index" recorded_number=2.88
biopolymer_sequence="KLLVVDRTRRKGNMKNGANDVKHH [L11K]" measure_name="protein stability index" recorded_number=2.93
biopolymer_sequence="KLLVVDRTRRLGRMKNGANDVKHH [N13R]" measure_name="protein stability index" recorded_number=2.75
biopolymer_sequence="KLLVVDRLRRLGNMKNGANDVKHH [T8L]" measure_name="protein stability index" recorded_number=2.47
biopolymer_sequence="RLLVVDRTRRLGNMKNGANDVKHH [K1R]" measure_name="protein stability index" recorded_number=2.52
biopolymer_sequence="KNLVVDRTRRLGNMKNGANDVKHH [L2N]" measure_name="protein stability index" recorded_number=4.03
biopolymer_sequence="KLLVVDRTRRLGNMKPGANDVKHH [N16P]" measure_name="protein stability index" recorded_number=3.16
biopolymer_sequence="KLLVVDRTHRLGNMKNGANDVKHH [R9H]" measure_name="protein stability index" recorded_number=3.07
biopolymer_sequence="KLLVVDRTRRLGNMKNGCNDVKHH [A18C]" measure_name="protein stability index" recorded_number=3.55
biopolymer_sequence="KLLVVDRTRRLGNMKNGANDPKHH [V21P]" measure_name="protein stability index" recorded_number=3.37
biopolymer_sequence="KLLVVDRTRRLGNMKNGANNVKHH [D20N]" measure_name="protein stability index" recorded_number=2.74
biopolymer_sequence="KLLVVDRTRRLFNMKNGANDVKHH [G12F]" measure_name="protein stability index" recorded_number=2.51
biopolymer_sequence="KLLVVDRTRRLGNMKNGAGDVKHH [N19G]" measure_name="protein stability index" recorded_number=3.12
biopolymer_sequence="KLLVVDRTRRNGNMKNGANDVKHH [L11N]" measure_name="protein stability index" recorded_number=3.6
biopolymer_sequence="KLLVVDRTRRTGNMKNGANDVKHH [L11T]" measure_name="protein stability index" recorded_number=3.47
biopolymer_sequence="KLLVTDRTRRLGNMKNGANDVKHH [V5T]" measure_name="protein stability index" recorded_number=3.67
biopolymer_sequence="KLLVVDRTRRLGNMKNGANDVKHQ [H24Q]" measure_name="protein stability index" recorded_number=3.01
biopolymer_sequence="KLLVVDRTRRLGNMKWGANDVKHH [N16W]" measure_name="protein stability index" recorded_number=2.26
biopolymer_sequence="KLLVVDRTRRLGSMKNGANDVKHH [N13S]" measure_name="protein stability index" recorded_number=2.91
biopolymer_sequence="KLLVSDRTRRLGNMKNGANDVKHH [V5S]" measure_name="protein stability index" recorded_number=3.62
biopolymer_sequence="KLLVVDRTRRLGNNKNGANDVKHH [M14N]" measure_name="protein stability index" recorded_number=3.67
